# subject-of-test: IP receptor (Homo sapiens, UniProt P43119)
# Construct: expressed in transfected cells; host or cells: CHO cells stably expressing the IP receptor (CHO-IP)
# Sequence (P43119 whole entry): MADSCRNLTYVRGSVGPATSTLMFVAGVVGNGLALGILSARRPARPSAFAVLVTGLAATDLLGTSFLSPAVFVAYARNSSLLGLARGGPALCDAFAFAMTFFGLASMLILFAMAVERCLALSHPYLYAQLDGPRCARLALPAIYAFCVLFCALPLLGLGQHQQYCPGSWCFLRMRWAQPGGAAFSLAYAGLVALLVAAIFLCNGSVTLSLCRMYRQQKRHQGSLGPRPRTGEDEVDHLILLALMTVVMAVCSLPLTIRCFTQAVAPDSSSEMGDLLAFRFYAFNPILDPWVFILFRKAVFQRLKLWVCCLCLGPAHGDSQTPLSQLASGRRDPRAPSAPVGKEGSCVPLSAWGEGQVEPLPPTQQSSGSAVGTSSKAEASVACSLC
# measurement-notes: cAMP accumulation in CHO cells stably expressing the IP receptor (CHO-IP), PerkinElmer AlphaScreen assay
# Format: cell-based
# conditions: read-out: EC50 values in the data measurements described above
pEC50: −log10 of the molar value.
Each item that follows carries a reported pEC50.

Guide cases for pEC50, answers given:
CCCc1ccc(-c2nc3c(nc2-c2ccc(CCC)cc2)N(CCCCCC(=O)OCC)CCC3)cc1 : < 5.00
CCOC(=O)CCCCCCN1CCCc2nc(-c3cccc(C)c3)c(-c3ccc(C)cc3)nc21 : < 5.00

Please supply the value of reported pEC50 for the item O=C(O)CCCCN1CCCc2cc(-c3ccccc3)c(-c3ccccc3)nc21
< 5.00
